Test system: ragweed (common ragweed, Ambrosia elatior)
protocolText: Test C preemergence, plant response rating
Assay type: in vivo
conditionLabel: Preemergence; 31 g ai/ha; scale 0 to 100
assayReadout: Plant response rating, Ragweed

N#Cc1cccc(Oc2ncc(Cl)cn2)c1COCCC(F)(F)F
0
O=C(OCCC(F)(F)F)c1c(Br)cccc1Oc1ncc(Br)cn1
35
O=C(CCCC(F)(F)F)c1c(Oc2ncc(Cl)cn2)cccc1C(F)(F)F
10
N#Cc1cccc(Oc2ncc(Cl)cn2)c1CCCC(F)(F)F
0
O=C(CCCC(F)(F)F)c1c(Br)cccc1Oc1ncc(Cl)cn1
0

* * *

Tested on: nutsedge, yellow (yellow nutsedge, Cyperus esculentus)
protocolText: Test C postemergence, plant response rating
Assay type: in vivo
conditionLabel: 31 g ai/ha, scale 0 to 100
assayReadout: Plant response rating, Nutsedge, Yellow

O=C(CCCC(F)(F)F)c1c(Cl)cccc1Oc1ncc(Cl)cn1
5
FC(F)(F)CCCc1c(Br)cccc1Oc1ncc(Cl)cn1
0
FC(F)(F)CCCCc1c(Br)cccc1Oc1ncc(Cl)cn1
0
O=C(CCCC(F)(F)F)c1c(Oc2ncc(Cl)cn2)cccc1C(F)(F)F
5
N#Cc1cccc(Oc2ncc(Cl)cn2)c1COCCC(F)(F)F
0
CCCCC(=O)c1c(Br)cccc1Oc1ncc(Cl)cn1
5

* * *

Test system: pigweed (Amaranthus retroflexus)
protocolText: Test C preemergence, plant response rating
Type: in vivo
conditionLabel: Preemergence; 16 g ai/ha; scale 0 to 100
Please assign false (0) whenever Plant response rating, Pigweed is at or above 60, and true (1) whenever it is below.

O=C(OCCC(F)(F)F)c1c(Br)cccc1Oc1ncc(Cl)cn1
false (0)
C=CCCOC(=O)c1c(Br)cccc1Oc1ncc(Cl)cn1
true (1)
O=C(CCCC(F)(F)F)c1c(Br)cccc1Oc1ncc(Cl)cn1
false (0)
N#Cc1cccc(Oc2ncc(Cl)cn2)c1CCCCC(F)(F)F
false (0)
O=C(OCCCC(F)(F)F)c1c(Br)cccc1Oc1ncc(Cl)cn1
true (1)

* * *

Items are presented alongside their recorded Crabgrass, Large plant response rating.
Tested on: crabgrass, large (large crabgrass, Digitaria sanguinalis)
protocolText: Test C postemergence, plant response rating
Assay type: in vivo
conditionLabel: 62 g ai/ha, scale 0 to 100 (0 no effect, 100 complete control)
assayReadout: Crabgrass, Large plant response rating

CCCC(=O)c1c(Br)cccc1Oc1ncc(Cl)cn1 [Compound 75]
15
O=C(CCCC(F)(F)F)c1c(Br)cccc1Oc1ncc(Cl)cn1 [Compound 77]
30
N#Cc1cccc(Oc2ncc(Cl)cn2)c1CCCC(F)(F)F [Compound 72]
10
O=C(CCCC(F)(F)F)c1c(Oc2ncc(Cl)cn2)cccc1C(F)(F)F [Compound 125]
15
O=C(CCCC(F)(F)F)c1c(Cl)cccc1Oc1ncc(Cl)cn1 [Compound 143]
15
O=C(CCC(F)(F)C(F)(F)F)c1c(Br)cccc1Oc1ncc(Cl)cn1 [Compound 110]
25
FC(F)(F)CCCCc1c(Br)cccc1Oc1ncc(Cl)cn1 [Compound 138]
85

* * *

System: barnyardgrass (Echinochloa crus-galli)
protocolText: Test B flooded paddy test, plant response rating
Format: in vivo
conditionLabel: Echinochloa crus-galli, 312 h; 250 g ai/ha; Flood; scale of 0 to 100 where 0 is no effect and 100 is complete control; 13 to 15 days
# key: entry, value: pest or weed control at 250 g/ha
assayReadout: pest or weed control at 250 g/ha (%)

C=CCCOC(=O)c1c(Br)cccc1Oc1ncc(Cl)cn1
30
C=CCOC(=O)c1c(Br)cccc1Oc1ncc(Cl)cn1
0
O=C(OCC(F)(F)C(F)(F)F)c1c(Br)cccc1Oc1ncc(Cl)cn1
0
O=C(OCCC(F)(F)F)c1cc(C(F)(F)F)ccc1Oc1ncc(Cl)cn1
0
